FYI, the data here is from the supplement of paper PMC12042874.

- procedure.summary: amyloid nucleation score (Sup35N fusion, yeast selection) (log enrichment); library NNK3; higher = more nucleation; inactive = no reads after selection;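 also: zero at mode of non-aggregating sequences after 7 days selection at 30°C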
recorded.metric: amyloid nucleation score

# annotated cases, reported amyloid nucleation score shown
Task: For `HCFTVWWEWP` , what is its reported amyloid nucleation score?
Output: inactive

Task: For `FFTRSNVLRSVCFSSPITLW` , what is its reported amyloid nucleation score?
Output: inactive

Task: For `IYCVNSSAFVLEPF` , what is its reported amyloid nucleation score?
Output: inactive

Task: For `FLTRFRDPT` , what is its reported amyloid nucleation score?
Output: -0.589

Task: For `FCLFDFGILG` , what is its reported amyloid nucleation score?
Output: inactive

State recorded amyloid nucleation score for all listed substances.
1. INDLQTSPR
2. STLRWLR
3. CNQTSM
4. LKWCFFCCN

Output:
inactive
inactive
inactive
2.54

Task: For `DLAYIGVFLIMFCFTSVDSM` , what is its reported amyloid nucleation score?
Output: -0.225

###

- procedure.summary: amyloid nucleation score (Sup35N fusion, yeast selection) (log enrichment); library NNK2; higher = more nucleation; inactive = no reads after selection
Binary call on amyloid nucleation score: y from -0.2 upward, n beneath that.

Solved entries:
Task: Test whether the substance `AILFSIFISVGRKWLFSASH` records amyloid nucleation score of -0.2 or higher.
Output: n

Task: Test whether the substance `VNLLLMVWRGLLLARTGRSG` records amyloid nucleation score of -0.2 or higher.
Output: y

Task: Test whether the substance `SPWCPQLSTGGCSNLGSLRR` records amyloid nucleation score of -0.2 or higher.
Output: y

Task: Test whether the substance `SFIVRQGPTHKFVSECS` records amyloid nucleation score of -0.2 or higher.
Output: n

Task: Test whether the substance `NTGSLWG` records amyloid nucleation score of -0.2 or higher.
Output: n

New cases:
Task: Test whether the substance `GSVTVCIMSRR` records amyloid nucleation score of -0.2 or higher.
Output: n

Task: Test whether the substance `FLQRSRNMNCLRGHDFNSNG` records amyloid nucleation score of -0.2 or higher.
Output: y

Task: Test whether the substance `VLCGNSFMNCCSAFRCGSAV` records amyloid nucleation score of -0.2 or higher.
Output: y

###

- procedure.summary: amyloid nucleation score (Sup35N fusion, yeast selection) (log enrichment); library NNK3; higher = more nucleation; inactive = no reads after selection
recorded.metric: amyloid nucleation score

# annotated cases, reported amyloid nucleation score shown
Task: For `LFHSYLIHRLFPSNHSNFRM` , what is its reported amyloid nucleation score?
Output: inactive

Task: For `HRAPMSHPVCLMIKWLLWVL` , what is its reported amyloid nucleation score?
Output: inactive

Task: For `KAFCFF` , what is its reported amyloid nucleation score?
Output: 1.24

Task: For `TIQCMCFCSNRVLTIIVQLS` , what is its reported amyloid nucleation score?
Output: -0.61

Task: For `MLIQPWSSSRNYVPPAEYW` , what is its reported amyloid nucleation score?
Output: inactive

Task: For `MCEGLEFLNTK` , what is its reported amyloid nucleation score?
Output: inactive

Task: For `HQVGYGLHGPG` , what is its reported amyloid nucleation score?
Output: -0.539

Task: For `FVDGVSYGTGTSSYKRTELY` , what is its reported amyloid nucleation score?
Output: inactive

State recorded amyloid nucleation score for all listed substances.
1. GSNRQTVRFNWS
2. YRILYGWSFMIRLILDVQRE

Output:
1. inactive
2. inactive

###

- procedure.summary: amyloid nucleation score (Sup35N fusion, yeast selection) (log enrichment); library NNK3; higher = more nucleation; inactive = no reads after selection
recorded.metric: amyloid nucleation score

# annotated cases, reported amyloid nucleation score shown
Task: For `EHWCFINFLELICYQYLFLP` , what is its reported amyloid nucleation score?
Output: inactive

Task: For `AARISRGVPWYGQEMKGRVR` , what is its reported amyloid nucleation score?
Output: inactive

Task: For `KWVFYYDRRVDSLLARMFLC` , what is its reported amyloid nucleation score?
Output: inactive

Task: For `SIILGCCLWLHLMH` , what is its reported amyloid nucleation score?
Output: 2.08

Task: For `SYPERMLWSSVMADFKMRRP` , what is its reported amyloid nucleation score?
Output: inactive

State recorded amyloid nucleation score for all listed substances.
1. TRLSSFRKIKEIYLLTQWKP
2. LAAQIMNSLCRLELSQALSR
3. LLLPIS
4. NNNISFEEWFPS
5. WFLVVVTFGWSIGQGQVGA
6. EHPLMSSSVSSTNMFNYAQI

Output:
["inactive", "inactive", "inactive", "inactive", -0.527, "inactive"]

###

- procedure.summary: amyloid nucleation score (Sup35N fusion, yeast selection) (log enrichment); library NNK3; higher = more nucleation; inactive = no reads after selection
recorded.metric: amyloid nucleation score

# annotated cases, reported amyloid nucleation score shown
Task: For `GSFSMKDTVEVYLTPVWFSR` , what is its reported amyloid nucleation score?
Output: inactive

Task: For `AHLLETMDTREVFKIR` , what is its reported amyloid nucleation score?
Output: inactive

Task: For `LCHYYLRSKLMAFDMLAFPS` , what is its reported amyloid nucleation score?
Output: inactive

Task: For `EKYWNN` , what is its reported amyloid nucleation score?
Output: inactive

Task: For `RVLQKAPRWAMGFARW` , what is its reported amyloid nucleation score?
Output: inactive

Task: For `NALTNSVKLFVLQTIVVYMR` , what is its reported amyloid nucleation score?
Output: inactive

State recorded amyloid nucleation score for all listed substances.
1. YTFLSVAFLD
2. LACLILS
3. SHHSHSNDVALGSSISF
4. DCIRIYQWASLSL
5. WLLHLIYD
6. CPGVHWHDVK
7. ILYICHINKGVGGQIGVMAV

Output:
1: inactive; 2: inactive; 3: inactive; 4: inactive; 5: inactive; 6: inactive; 7: inactive

###

Would you mind telling me the reported amyloid nucleation score of each entry?
- procedure.summary: amyloid nucleation score (Sup35N fusion, yeast selection) (log enrichment); library NNK2; higher = more nucleation; inactive = no reads after selection
Give bare numbers.

# annotated cases, reported amyloid nucleation score shown
Task: For `GRWKDRFCTVGMLYSRG` , what is its reported amyloid nucleation score?
Output: -0.316

Task: For `SFYRHGFTGNGTSVRGPDRS` , what is its reported amyloid nucleation score?
Output: 0.097

Task: For `AFNARWTEIDVPWRASPAHV` , what is its reported amyloid nucleation score?
Output: 0.657

State recorded amyloid nucleation score for all listed substances.
1. GESTWATVLACPSERRSCSR
2. QLYLWHCGFLTTDISGSNSS
3. RHAASVWLKDQDVLYPTMT
4. PYYKAGGYMVMVHLSRLFLL

Output:
[0.559, -0.713, 0.995, -0.882]

###

- procedure.summary: amyloid nucleation score (Sup35N fusion, yeast selection) (log enrichment); library NNK3; higher = more nucleation; inactive = no reads after selection
recorded.metric: amyloid nucleation score

# annotated cases, reported amyloid nucleation score shown
Task: For `SIMTSFRPFPTWRCG` , what is its reported amyloid nucleation score?
Output: -0.563

Task: For `ENAYLRSCRVVVKESSNVVV` , what is its reported amyloid nucleation score?
Output: -0.906

Task: For `GWNLGMAHSRRYGPVNISAW` , what is its reported amyloid nucleation score?
Output: inactive

Task: For `RVRFLCIMFWDH` , what is its reported amyloid nucleation score?
Output: -0.038

Task: For `FLILVGLGRIDLMGTIIKKR` , what is its reported amyloid nucleation score?
Output: inactive

Task: For `DDDHKIKLLLSGGL` , what is its reported amyloid nucleation score?
Output: inactive

State recorded amyloid nucleation score for all listed substances.
1. FVLVHSFLECHYIHVTTERL
2. NYALWFANI
3. TLLRHVNNDGGSVSLGTMLA

Output:
1: inactive; 2: inactive; 3: inactive

State recorded amyloid nucleation score for all listed substances.
1. VFGGNVIKSYVKITFQPGFD
2. GSWSVRLPLIWTKY
3. VIARDDINCVRDGGQGLQIS

Output:
1. 2.22
2. inactive
3. inactive

###

- procedure.summary: amyloid nucleation score (Sup35N fusion, yeast selection) (log enrichment); library NNK3; higher = more nucleation; inactive = no reads after selection
recorded.metric: amyloid nucleation score

Task: For `ISSFGARNTPWRTLSPAPEG` , what is its reported amyloid nucleation score?
Output: 0.184

Task: For `ARHVLAGCKRMLYHFEGRVG` , what is its reported amyloid nucleation score?
Output: -0.643

Task: For `VSNLGCCKALSCGMSYRVCW` , what is its reported amyloid nucleation score?
Output: inactive

Task: For `RRVTFGGMAHSERKRYCLFT` , what is its reported amyloid nucleation score?
Output: inactive

Task: For `EYMCACSLEILVL` , what is its reported amyloid nucleation score?
Output: inactive

State recorded amyloid nucleation score for all listed sequences.
1. VIFTIHNGT
2. MSVTITGALQVVTKVPANMI

Output:
inactive
0.593

State recorded amyloid nucleation score for all listed sequences.
1. VSDILADCPIIRPGGYCCVS
2. FLVTYKISWRYKSQQLCSYY

Output:
["inactive", "inactive"]
